The following molecules are listed with their measured GI50 values.
Tested on: OVCAR-4
Assay: NCI tumour cell line growth inhibition, 48 h
The source made the active and inactive calls. Cut-off read from the data, not from the text of the source: active = GI50 up to about 1.1 µM and inactive = higher.
observed_property: GI50

molecule="O=c1[nH]c(=O)n(C2CC(O)C(CO)O2)cc1C#Cc1cc(C(F)(F)F)cc(C(F)(F)F)c1 (stereo not drawn)" observed_measurement="> 29.4 µM (inactive)"
molecule=COC1=CC(=O)C(Br)=CC1=O observed_measurement="17.9 µM (inactive)"
molecule=Brc1c(C#CCC2CCCCC2)ccc(C#CCC2CCCCC2)c1Br observed_measurement="> 100 µM (inactive)"

* * *

Measured GI50, listed per entry.
System: U-251
Assay: NCI tumour cell line growth inhibition, 48 h
Active and inactive are the calls of the source. Cut-off read from the data, not from the text of the source: active = GI50 up to about 1.1 µM and inactive = higher.
observed_property: GI50

molecule="O=C(c1ccccc1)C(c1ccccc1)C1(O)C(=O)Nc2ccc(Br)cc21 (configuration not stated)" subject_of_test=U-251 observed_measurement="65 µM (inactive)"
molecule="COc1ccc2[nH]c(C(=O)N3CC(CCl)c4ccc([N+](=O)[O-])cc43)cc2c1 (configuration not stated)" subject_of_test=U-251 observed_measurement="> 100 µM (inactive)"
molecule="Cc1ccc(S(=O)(=O)OC2CN3CCC2CC3)cc1 (configuration not stated)" subject_of_test=U-251 observed_measurement="> 100 µM (inactive)"
molecule=CCCC(=O)/C=C/S/C=C/C(=O)CCC subject_of_test=U-251 observed_measurement="14.3 µM (inactive)"
molecule=COCN1C(=O)[C@@H]2CCCN2C(=O)c2ccc(Cl)cc21 subject_of_test=U-251 observed_measurement="> 100 µM (inactive)"
molecule="O=C1CSC(C(/N=N/c2ccc(Cl)cc2)c2nc3ccccc3[nH]2)=N1 (configuration not stated)" subject_of_test=U-251 observed_measurement="53.3 µM (inactive)"
molecule="CCOC(=O)C(C(C)=O)C1CC=CC1 (configuration not stated)" subject_of_test=U-251 observed_measurement="> 100 µM (inactive)"
molecule=Cc1ccc2nc(NC(=O)C(=O)C3C(=O)NC(=S)NC3=O)sc2c1 subject_of_test=U-251 observed_measurement="> 100 µM (inactive)"
molecule=CC(C)CNC(=O)c1c(NC(=O)c2ccccc2)sc2[nH]c(=O)n(-c3ccccc3)c(=O)c12 subject_of_test=U-251 observed_measurement="31.3 µM (inactive)"
molecule=CC(=O)Oc1c(C)cc2c(c1C)C(C)(C)CN2C(=O)C(C)(C)C subject_of_test=U-251 observed_measurement="> 100 µM (inactive)"
molecule="Cc1c(/N=N/c2ccccc2)c(-c2ccccc2)n(C2OC(CO)C(O)C(O)C2O)c(=S)c1C#N (configuration not stated)" subject_of_test=U-251 observed_measurement="4.08 µM (inactive)"
molecule=C[C@@H](c1ccccc1)N(CC#N)[C@H]1CCC[C@]1(O)/C=C/c1ccc2c(c1)OCO2 subject_of_test=U-251 observed_measurement="> 25 µM (inactive)"
molecule="C=C(C)[C@@H]1CC[C@]2(COC(C)=O)CC[C@]3(C)[C@H](CC[C@@H]4[C@@]5(C)CC[C@H](OC(C)=O)C(C)(C)[C@@H]5CC[C@]43C)[C@@H]12 [BETULIN DIACETATE]" subject_of_test=U-251 observed_measurement="> 50 µM (inactive)"
molecule="Cc1cc(Cl)ccc1NC(=O)C(=O)C(C(=O)c1ccc2ccccc2c1)C1OC(=O)c2ccccc21 (configuration not stated)" subject_of_test=U-251 observed_measurement="4.95 µM (inactive)"
molecule=CCCc1c[nH]c(-c2ccc(-c3cc(CCC)c(C=O)[nH]3)s2)c1 subject_of_test=U-251 observed_measurement="15.6 µM (inactive)"
molecule=C=C1CC[C@]2(C)[C@H](CC[C@@]34C[C@@H](CC[C@H]32)[C@@H](C(=O)O)C4)C1(C)C subject_of_test=U-251 observed_measurement="> 12.5 µM (inactive)"
molecule="CC1=CCCC(OC(N)=O)C1 (configuration not stated)" subject_of_test=U-251 observed_measurement="> 100 µM (inactive)"
molecule=N#C/C(C(=O)Nc1ccc(Cl)cc1)=C(/N)N1CCCCC1 subject_of_test=U-251 observed_measurement="56.5 µM (inactive)"
molecule="O=C1N(c2ccc(Cl)cc2)C(=O)C2(SC=NN2Cc2ccccc2)N1c1ccc(Cl)cc1 (configuration not stated)" subject_of_test=U-251 observed_measurement="> 100 µM (inactive)"
molecule=O=C(CSc1nnc(-c2ccc(/N=C\c3ccc(Cl)cc3)cc2)o1)Nc1ccc([N+](=O)[O-])cc1 subject_of_test=U-251 observed_measurement="19.3 µM (inactive)"
molecule=N#Cc1cc(C#N)c(Cl)nc1N subject_of_test=U-251 observed_measurement="> 10 µM (inactive)"
molecule=CCc1c(C#N)c(=O)[nH]c(=O)n1CCN1CCN(C(=O)NCCCCCCNC(=O)N2CCN(CCn3c(CC)c(C#N)c(=O)[nH]c3=O)CC2)CC1 subject_of_test=U-251 observed_measurement="> 100 µM (inactive)"
